Assignment: determine reported binding signal for the given binders.
Molecular target: T1, UNK ZnF1-3 (human, UniProt Q9C0B0 31-174)
T1 sequence: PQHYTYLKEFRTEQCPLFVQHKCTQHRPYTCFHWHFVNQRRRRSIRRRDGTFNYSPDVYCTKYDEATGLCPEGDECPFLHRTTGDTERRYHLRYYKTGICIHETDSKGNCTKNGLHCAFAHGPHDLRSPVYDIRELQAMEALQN
Experiment: nsRBNS (natural sequence RNA bind-n-seq); RBNS binding buffer (assumed for nsRBNS): 25 mM Tris pH 7.5, 150 mM KCl, 3 mM MgCl2, 0.01% Triton X-100, 500 ug/ml BSA, 20 U/ml SUPERase-In, 4 C; UNK is unkempt and MSI1 is Musashi-1; names of the RNAs are library labels; protein concentration not given here; high values mean tight binding
In all, about 24,000 sequences were measured (“enrichment r”: median about 0.99, highest 2% from about 3.7 on). The sample holds the highest values, similar sequences and a random draw of the others, so the mix is not that of the screen.
Express your answer in enrichment R, writing the number without its unit.

Exercise: What value of binding signal has been recorded for this entry: chr7:133967480:133967481:+_ENSMUSG00000058966_ENSMUST00000079423|mus_mus|FALSE|FALSE (ssRNA) RNA: GGGAGUUCUACAGUCCGACGAUCAGGGAGUUGGAGGUGAAGAAGGGAUUGCCAAGCCAGAAAGGGAGAGAGAAAGAGGGAGGGGGAGGCACAAAGGGGCCAGGGCGGGGACAGGAUGGGACAAGAGGACCAGUUCAGGGCAAGCAACAGAGGAUUGAGCAUCA
Key: 5.53

Exercise: What value of binding signal has been recorded for this entry: chr6:30691630:30691631:+_ENSG00000196230_ENST00000327892|hu_hu|FALSE|FALSE (ssRNA) RNA: GGGAGUUCUACAGUCCGACGAUCAGCUCGAUACUGCUGGCUUCCACGGCUGGUGAGAGGGGCAAAGCCAGGCAUAAAGAAAUGGAGACGUGGGAAGGGGACCAUGUUGACUGCCAACUUGCGGAGGUCAGCAUUGAGCUGGCCCAACAGAGGAUUGAGCAUCA
Key: 1.75
